# test_target: VLA4 (Homo sapiens, UniProt P05556+P13612)
# Construct: endogenous in cells
# Sequence (P13612 34-1032): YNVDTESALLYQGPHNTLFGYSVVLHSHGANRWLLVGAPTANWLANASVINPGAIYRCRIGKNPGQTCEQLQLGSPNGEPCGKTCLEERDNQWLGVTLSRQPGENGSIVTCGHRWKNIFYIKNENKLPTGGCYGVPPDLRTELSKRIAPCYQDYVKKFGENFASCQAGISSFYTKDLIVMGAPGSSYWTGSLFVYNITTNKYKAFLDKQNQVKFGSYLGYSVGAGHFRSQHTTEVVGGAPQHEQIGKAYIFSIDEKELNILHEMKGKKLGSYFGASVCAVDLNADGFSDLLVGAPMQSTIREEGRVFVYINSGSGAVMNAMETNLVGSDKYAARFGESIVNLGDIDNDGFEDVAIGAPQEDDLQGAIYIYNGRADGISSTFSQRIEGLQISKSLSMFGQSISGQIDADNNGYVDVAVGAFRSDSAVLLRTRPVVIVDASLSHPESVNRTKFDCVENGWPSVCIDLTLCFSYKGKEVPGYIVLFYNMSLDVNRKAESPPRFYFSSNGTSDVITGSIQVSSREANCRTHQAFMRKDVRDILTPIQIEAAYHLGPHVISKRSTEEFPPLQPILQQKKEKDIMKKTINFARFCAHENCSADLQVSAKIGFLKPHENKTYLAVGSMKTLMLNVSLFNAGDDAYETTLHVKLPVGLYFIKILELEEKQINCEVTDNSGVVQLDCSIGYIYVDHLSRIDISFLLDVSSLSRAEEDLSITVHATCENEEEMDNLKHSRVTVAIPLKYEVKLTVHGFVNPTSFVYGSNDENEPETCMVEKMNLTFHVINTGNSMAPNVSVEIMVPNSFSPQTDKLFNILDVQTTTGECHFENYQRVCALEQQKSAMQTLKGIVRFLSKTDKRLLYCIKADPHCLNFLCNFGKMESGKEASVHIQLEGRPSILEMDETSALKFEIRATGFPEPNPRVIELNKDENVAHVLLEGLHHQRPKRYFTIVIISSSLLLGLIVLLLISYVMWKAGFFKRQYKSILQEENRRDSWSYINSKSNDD
# Sequence (P05556 21-798): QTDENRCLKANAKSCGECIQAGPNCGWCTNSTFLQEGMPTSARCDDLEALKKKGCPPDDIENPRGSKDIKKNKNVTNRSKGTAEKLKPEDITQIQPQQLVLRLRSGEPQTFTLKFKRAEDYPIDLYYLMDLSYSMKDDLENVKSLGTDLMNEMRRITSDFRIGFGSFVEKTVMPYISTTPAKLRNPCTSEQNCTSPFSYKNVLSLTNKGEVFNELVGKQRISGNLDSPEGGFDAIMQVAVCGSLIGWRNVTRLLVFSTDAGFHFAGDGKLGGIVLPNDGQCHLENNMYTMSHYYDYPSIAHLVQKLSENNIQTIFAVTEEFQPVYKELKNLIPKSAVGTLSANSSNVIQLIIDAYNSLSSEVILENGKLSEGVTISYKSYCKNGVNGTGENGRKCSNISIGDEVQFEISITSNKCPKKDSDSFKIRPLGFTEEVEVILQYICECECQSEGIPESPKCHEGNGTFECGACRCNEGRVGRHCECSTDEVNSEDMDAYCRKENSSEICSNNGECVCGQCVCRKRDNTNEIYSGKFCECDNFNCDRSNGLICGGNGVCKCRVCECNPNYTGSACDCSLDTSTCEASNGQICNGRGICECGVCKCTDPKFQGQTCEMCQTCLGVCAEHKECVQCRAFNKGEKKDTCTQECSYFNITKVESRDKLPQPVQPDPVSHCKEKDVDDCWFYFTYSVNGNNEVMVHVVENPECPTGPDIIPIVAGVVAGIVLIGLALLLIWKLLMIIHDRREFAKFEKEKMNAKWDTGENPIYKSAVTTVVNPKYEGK
# assay_text: Inhibition of VLA4-dependent adhesion to BSA-CS1 (labelled Ramos cells)
# conditions: binding of BCECF-AM labelled Ramos cells to CS1 peptide-coated wells, 2 mM MnCl2, 30 minutes at room temperature; IC50 range
pIC50: −log10 of the molar value.
pIC50 listing for selected compounds.

>  <compound>
O=C(O)CC(NC(=O)C(Cc1ccccc1)NC(=O)Cc1ccc(NC(=O)Nc2ccccc2)cc1)c1ccc2c(c1)OCO2 (stereo not shown) [compound 1129]

>  <test_target>
VLA4 (Homo sapiens, UniProt P05556+P13612)

>  <pIC50>
5.00 to 7.30

$$$$
>  <compound>
CC(C)CC(C(=O)NC(CC(=O)O)c1ccc2c(c1)OCO2)N(C)C(=O)Cc1ccc(NC(=O)Nc2ccccc2)cc1 (stereo not shown) [compound 1055]

>  <test_target>
VLA4 (Homo sapiens, UniProt P05556+P13612)

>  <pIC50>
> 7.30

$$$$

Answer with the recorded pIC50 of CC(C)CC(NC(=O)Cc1ccc([N+](=O)[O-])cc1)C(=O)NC(CC(=O)O)c1ccccc1 (stereo not shown) [compound 1093] only. < 5.00

Give the value of pIC50 reported for the following: O=C(O)CC(NC(=O)C(CC(=O)N1CCOCC1)NC(=O)Cc1ccc(NC(=O)Nc2ccccc2)cc1)c1ccc2c(c1)OCO2 (stereo not shown) [compound 1170] 5.00 to 7.30

###

# test_target: VLA4 (Homo sapiens, UniProt P05556+P13612)
# Construct: endogenous in cells
# assay_text: Inhibition of VLA4-dependent adhesion to BSA-CS1 (labelled Ramos cells)
# conditions: binding of BCECF-AM labelled Ramos cells to CS1 peptide-coated wells, 2 mM MnCl2, 30 minutes at room temperature; IC50 range
pIC50: −log10 of the molar value.
endpoint_name: pIC50

>  <compound>
CC(C)CC(NC(=O)Cc1ccc(NC(=O)Nc2ccccc2C(C)C)cc1)C(=O)NC(CC(=O)O)c1ccc2c(c1)OCO2 (stereo not shown)

>  <pIC50>
> 7.30

$$$$
>  <compound>
COC(C)C(NC(=O)Cc1ccccc1)C(=O)NC(CC(=O)O)c1ccccc1 (stereo not shown)

>  <pIC50>
< 5.00

$$$$
>  <compound>
CC(C)CC(NC(=O)Cc1ccc(O)cc1)C(=O)NC(CC(=O)O)c1ccc2c(c1)OCO2 (stereo not shown)

>  <pIC50>
5.00 to 7.30

$$$$
>  <compound>
CC(C)CC(NC(=O)c1c[nH]c2ccccc12)C(=O)NC(CC(=O)O)c1ccccc1 (stereo not shown)

>  <pIC50>
< 5.00

$$$$
>  <compound>
COc1ccc(C(CC(=O)O)NC(=O)C(CCSC)NC(=O)Cc2ccc(NC(=O)Nc3ccccc3C)cc2)cc1OC (stereo not shown)

>  <pIC50>
> 7.30

$$$$

Please look at CC(C)CC(NC(=O)Cc1ccccc1NC(=O)c1ccccc1)C(=O)NC(CC(=O)O)c1ccccc1 (stereo not shown) and tell me its recorded pIC50 on VLA4 (Homo sapiens, UniProt P05556+P13612). < 5.00

Find pIC50 for COc1ccc(C(CC(=O)O)NC(=O)C(CC(C)C)NC(=O)Cc2ccc(NC(=O)Nc3nccs3)cc2)cc1 (stereo not shown) on VLA4 (Homo sapiens, UniProt P05556+P13612) and write it down. 5.00 to 7.30
